Values from patent US7087758B2

- systemName: hYAK1 (Homo sapiens, UniProt Q92630)
- Construct: DET1/DET2-tagged full length hYAK1 was expressed in Drosophila sf9 cells; DET1/DET2 tag (purified on Ni column); made in house; host or cells: "Drosophila sf9 cells" as printed (insect cells)
- Sequence (Q92630 74-601): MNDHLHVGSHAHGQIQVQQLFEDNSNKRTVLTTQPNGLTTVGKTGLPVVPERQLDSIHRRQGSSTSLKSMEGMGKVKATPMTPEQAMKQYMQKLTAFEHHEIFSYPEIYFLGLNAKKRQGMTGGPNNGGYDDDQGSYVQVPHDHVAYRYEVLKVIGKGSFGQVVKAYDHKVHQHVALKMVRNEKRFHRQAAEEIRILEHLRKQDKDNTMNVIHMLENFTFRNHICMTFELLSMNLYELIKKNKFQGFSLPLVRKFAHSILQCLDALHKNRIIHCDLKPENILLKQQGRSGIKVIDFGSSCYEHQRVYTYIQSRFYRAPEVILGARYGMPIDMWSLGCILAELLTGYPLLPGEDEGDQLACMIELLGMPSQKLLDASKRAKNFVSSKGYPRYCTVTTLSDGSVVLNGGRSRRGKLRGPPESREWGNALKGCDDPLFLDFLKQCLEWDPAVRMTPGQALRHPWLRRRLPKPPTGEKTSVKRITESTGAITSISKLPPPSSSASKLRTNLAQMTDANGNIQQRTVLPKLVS
- testSummary: FlashPlate kinase assay of hYAK1 (Ni-hYAK1)
- Format: biochemical
- conditionDescription: 0.1 ug hYAK1
parameter: IC50
Hi, when you answer, please include the unit after the number. Thanks!

Asked: What does the data say about its IC50? Entry: NC1=N/C(=C2/CCNC(=O)c3[nH]c(Br)cc32)C(=O)N1 [SKF-108752]
Given back: 190 nM
